ASSAY_NAME: A CellTox Green Cytotoxicity Assay to monitor cytotoxicity in HEK293 cells - 32 hour (AID 1224881); also: nearly all actives have a fitted effect of over 40% in size
CONDITION_DETAILS: CellTox Green fluorescence; series mostly up to 76.8 µM
Results filed as inconclusive are left out. The source made the active and inactive calls. Calls follow the shape of the dose curve; as a rule, active = well fitted activation curve with a large enough effect in the repeat runs; inconclusive = weak or mixed curves; inactive = flat fitted curve, though single readings scatter.
Outcomes: yes for active, no for inactive

• O=[N+]([O-])c1cc([N+](=O)[O-])c2ccc(S(=O)(=O)O)cc2c1O = no
• O=C1c2c(O)ccc(Nc3ccc(CCO)cc3)c2C(=O)c2c([N+](=O)[O-])ccc(O)c21 = no
• CCCCCOc1ccccc1/C(=C\SC)n1ccnc1 = no
• O=c1cccccc1O = no
• Clc1ccc2cc3ccccc3cc2c1 = no
• ON=C1CCCC1 = no
• NC(=NCCCCCCN=C(N)/N=C(\N)Nc1ccc(Cl)cc1)/N=C(\N)Nc1ccc(Cl)cc1 = yes
• Cc1cc(O)c(C(C)(C)C)cc1C(C)(C)C = yes
• CN(C)c1ccc(C2(c3ccc(N(C)C)cc3)OC(=O)c3cc(N(C)C)ccc32)cc1 = no
• CC(=O)OCC(C)OC(C)=O (stereo not drawn) = no
• Nc1nc2ccccc2n1Cc1ccc(F)cc1 = no
• CSc1cnc(C)cn1 = yes
• CCCC(c1cc(C(C)(C)C)c(O)cc1C)c1cc(C(C)(C)C)c(O)cc1C = yes

Entry source: PubChem BioAssay (Tox21)
